- Assayed system: L-lactate dehydrogenase (Plasmodium falciparum (isolate CDC / Honduras)) (UniProt Q27743)
- Sequence (Q27743 whole entry, looked up): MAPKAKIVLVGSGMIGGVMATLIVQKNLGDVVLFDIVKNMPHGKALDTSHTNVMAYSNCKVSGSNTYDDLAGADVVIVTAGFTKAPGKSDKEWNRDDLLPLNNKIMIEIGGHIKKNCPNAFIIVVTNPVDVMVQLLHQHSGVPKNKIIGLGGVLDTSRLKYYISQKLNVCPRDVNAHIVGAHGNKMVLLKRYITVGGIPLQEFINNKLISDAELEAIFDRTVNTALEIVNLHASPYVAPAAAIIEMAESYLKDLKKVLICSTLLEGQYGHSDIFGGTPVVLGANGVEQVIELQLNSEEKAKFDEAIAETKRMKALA
- Measurement protocol: PfLDH activity inhibition – cell lysate, 3D7 strain, counter-screen for P. falciparum growth inhibition project (AID 2304);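 also: 0% = vehicle and 100% = reference inhibitor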
- Run conditions: P. falciparum 3D7 crude extract, LDH APAD/NBT absorbance; at 2 µM; stronger effect = higher value
Recorded endpoint: inhibition (%)
Just the number in %, nothing appended.

Consider the following illustrative entries.
[[record]]
molecule = "CCNc1cc(C(=O)N[C@@H](Cc2ccccc2)[C@H](O)CNCCc2cccc3ccccc23)cc(N2CCCC2=O)c1"
endpoint_value = 3

[[record]]
molecule = "Fc1ccc(OC2CN(c3nccc(NCc4ccccc4Cl)n3)C2)cc1"
endpoint_value = 6

[[record]]
molecule = "CCC[C@@H]([C@@H](CC(C)C)C(=O)N[C@@H](CCCCNC(=O)c1cccc(OC)c1)C(=O)Nc1nccs1)N(O)C=O"
endpoint_value = -4


// lookup inhibition for "Cc1cccc2[nH]c(-c3cccc(-c4ccc(C(=O)NCCc5ccc(O)c(=O)[nH]5)cc4)c3)nc12"
-1

Please report the recorded inhibition for "Cc1noc(C)c1-c1ccc2c(Nc3ccccc3C(C)(C)C)c(C(=O)NC3CCCC3)cnc2c1" .
-3

Please give the measured inhibition for this molecule: "Cc1cccc2[nH]c(-c3cccc(-c4ccc(NC(=O)CN5CCOCC5)cc4)c3)nc12"
4

Could you share which inhibition value was measured for CC1(CCCCN2CCC(Oc3ccc(F)cc3F)CC2)C(=O)Nc2ccccc21 (centres undefined) ?
-6

Please look up its inhibition: "COc1ccc(NC(=O)/C=C/c2ccccc2Cl)cc1OCCN1CCC(NC2CC2)CC1"
3

For the molecule "Cn1nc(-c2ccccc2F)c2cc(C(=O)NC3CCN(Cc4ccccc4)CC3)sc21" , what inhibition is on record?
3

----------
# inhibition annotations
- Measurement protocol: HepG2 cytotoxicity, primary screen, cytotoxicity control for P. falciparum antimalarial project, cell-based, ATP luminescence (AID 2303);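 also: 0% = DMSO wells and 100% = digitonin-killed cells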
- Run conditions: HepG2 viability, 24-48 h, at 10 µM, stronger effect = higher value
All answers are understood in %, so give the number only.

[[record]]
structure_as_smiles = "COc1ccc(-c2cc(C(=O)Nc3ccc4nc(-c5ccccc5)[nH]c4c3)[nH]n2)cc1"
measurement_units = "%"
endpoint_value = 77

[[record]]
structure_as_smiles = "O=C(N[C@@H](CC1CCCCC1)C(=O)NCCN1CCCCC1)c1ccc(O)c(-c2cccc(C(F)(F)F)c2)c1"
measurement_units = "%"
endpoint_value = -5

[[record]]
structure_as_smiles = "Cn1nc(-c2ccccc2F)c2cc(C(=O)NC3CCN(Cc4ccccc4)CC3)sc21"
measurement_units = "%"
endpoint_value = 5

[[record]]
structure_as_smiles = "O=C(Nc1nc(-c2ccccn2)cs1)c1ccccc1COc1ccccc1"
measurement_units = "%"
endpoint_value = 34


For the next question, use this molecule.
# query: inhibition of entry "O=C(/C=C/c1ccc(-c2ccccc2)cc1)NCCCCCN1CCC(c2c[nH]c3ccccc23)CC1"
91

----------
- Measurement protocol: HepG2 cytotoxicity, primary screen, cytotoxicity control for P. falciparum antimalarial project, cell-based, ATP luminescence (AID 2303);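 also: 0% = DMSO wells and 100% = digitonin-killed cells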
- Run conditions: HepG2 viability, 24-48 h, at 10 µM, stronger effect = higher value
Sorting guide: entries reporting inhibition beneath 10% go in the label 1 pile, the rest go in the label 0 pile.

The examples below pair each entry with its known result.
[[record]]
structure_as_smiles = "COc1ccc2nccc([C@@H](O)CN3CCC(CO)(NCc4cc5ccccc5o4)CC3)c2c1"
assigned_class = "label 0"

[[record]]
structure_as_smiles = "COc1cc(C=NNc2nc(Nc3ccccc3)nc(Nc3ccccc3)n2)ccc1OCc1ccccc1[N+](=O)[O-]"
assigned_class = "label 1"

[[record]]
structure_as_smiles = "Cc1ccc(NC(=O)Nc2ccc(Cl)cc2)cc1-c1ccc(C(=O)Nc2ccncc2)cc1"
assigned_class = "label 0"

[[record]]
structure_as_smiles = "CC(C)(C)Oc1ccc(NC(=O)c2ccccc2O)cc1"
assigned_class = "label 1"

[[record]]
structure_as_smiles = "C[C@H](NC(=O)c1c(OC2CN(C(c3ccccc3)c3ccccc3)C2)c(-c2ccccc2)nc2ccccc12)C1CCCCC1"
assigned_class = "label 1"


Given "CC(C)(CNCc1ccc(C(F)(F)F)cc1)c1nc(-c2ccc(Cl)c(O)c2)c(-c2ccncc2)[nH]1" , is recorded inhibition strictly lower than 10%?
label 0

Dear colleague, could you confirm whether inhibition of "O=C(/C=C/c1ccc(Cl)c(Cl)c1)NCCCCCN1CCCN(C(=O)Nc2cc(Cl)nc(Cl)c2)CC1" falls below 10%? Thanks.
label 1

Please check: inhibition for "CCc1cn(C)c2c(N3CCCC3=O)cc(C(=O)N[C@@H](Cc3ccccc3)[C@H](O)CNCc3cccc(OC)c3)cc12" , strictly under 10% or not?
label 1

Confirm or reject: inhibition of "NOCCCCOc1ccccc1" lies strictly below 10%
label 0

----------
- Assayed system: Plasmodium falciparum protein kinase 6 (PK6, PF3D7_1337100) (UniProt Q8IDW1)
- Measurement protocol: PfPK6 kinase inhibitors, biochemical, TCAMS library (AID 1159586)
- Run conditions: recombinant PfPK6, Kinase-Glo ATP depletion luminescence
Measured potencies and affinities stand elsewhere. The source made the active and inactive calls. How the calls were made is not given here.
Recorded endpoint: outcome

[[record]]
compound = "O=C(N[C@@H](CC1CCCCC1)C(=O)NC1CCCc2ccccc21)c1ccc(O)c(-c2cccc([N+](=O)[O-])c2)c1 (stereo partly drawn)"
recorded_endpoint = "outcome"
endpoint_value = "inactive"

[[record]]
compound = "NC(=O)c1cc2nc(Nc3ccc(F)cc3)nc(Nc3ccc(S(N)(=O)=O)cc3)c2[nH]1"
recorded_endpoint = "outcome"
endpoint_value = "inactive"

[[record]]
compound = "O=C(Nc1ccc(C(=O)OCC2CCCCC2)cc1)N[C@@H](Cc1ccc(O)cc1)C(=O)NC1CCN(Cc2ccc(O)cc2)C1 (stereo partly drawn)"
recorded_endpoint = "outcome"
endpoint_value = "inactive"

[[record]]
compound = "CC(=O)COc1c(C2CCN(CCCCNC(=O)c3ccc(-c4ccc(C(F)(F)F)cc4)cc3)CC2)ccc2c1CCCC2"
recorded_endpoint = "outcome"
endpoint_value = "inactive"

[[record]]
compound = "c1ccc(CN2CCC(NCc3ccccc3-c3ccc(CNC4CCCC4)cc3)CC2)cc1"
recorded_endpoint = "outcome"
endpoint_value = "inactive"

[[record]]
compound = "CC(C)NCC(O)COc1ccc(Cc2ccc(OCC(O)CNC(C)C)cc2)cc1 (stereo not drawn)"
recorded_endpoint = "outcome"
endpoint_value = "inactive"


Query outcome on Plasmodium falciparum protein kinase 6 (PK6, PF3D7_1337100) (UniProt Q8IDW1) for "CCOC(=O)c1ccc2nc(-c3ccc(C(=O)NC4CCN(Cc5ccccc5)CC4)s3)[nH]c2c1"
inactive

# value lookup — system Plasmodium falciparum protein kinase 6 (PK6, PF3D7_1337100) (UniProt Q8IDW1), readout outcome, item "CN(/N=C/c1ccc(Cl)cc1)c1nc(NCCc2ccc(O)cc2)nc(N2CCNCC2)n1"
inactive

----------
- Assayed system: Calcium-dependent protein kinase 4 (Plasmodium falciparum (isolate 3D7))
- Measurement protocol: PfCDPK4 kinase inhibitors, biochemical, TCAMS library (AID 1159588)
- Run conditions: recombinant PfCDPK4, Kinase-Glo ATP depletion luminescence
Measured potencies and affinities stand elsewhere. Activity calls are given as the source filed them. No cut-off is given here; in the data, nearly all actives have IC50 up to about 0.91 µM.
Recorded endpoint: outcome

In the examples that follow, each entry is paired with its recorded outcome.
[[record]]
compound = "Cc1cccc(Cl)c1S(=O)(=O)Nc1cccc(CCN2CCC(N3CCCCC3)CC2)c1"
recorded_endpoint = "outcome"
endpoint_value = "inactive"

[[record]]
compound = "CC(C)(C)OC(=O)NCc1ccc(Nc2nnc(-c3ccc(OCC(=O)NC[C@@H]4CC[C@H]5C[C@@H]4C5(C)C)c([N+](=O)[O-])c3)o2)cc1"
recorded_endpoint = "outcome"
endpoint_value = "inactive"

[[record]]
compound = "Nc1nc(-c2ccccn2)nc(-n2nc(-c3cccc(C(F)(F)F)c3)cc2N)n1"
recorded_endpoint = "outcome"
endpoint_value = "inactive"

[[record]]
compound = "CN(C)CCN1CCN(Cc2cccc(-c3csc(-c4nc5ccccc5[nH]4)c3)c2)CC1"
recorded_endpoint = "outcome"
endpoint_value = "inactive"

[[record]]
compound = "COc1ccc(S(=O)(=O)N(CC(=O)NN=C(C)c2cccs2)c2cc(C)cc(C)c2)cc1OC"
recorded_endpoint = "outcome"
endpoint_value = "inactive"


# outcome lookup, item "CCOc1ccc2nc(-c3ccccc3)cc(NN=Cc3ccncc3)c2c1"
inactive

Form field: reported outcome of Cc1noc(-c2cccs2)c1C(=O)NC(C)c1cccc2ccccc12 (stereo not drawn)
inactive

Any idea what outcome was measured for "COc1ccc(-c2ccc(NC(=O)c3ccc(Cl)cc3)cc2)cc1CN(C)CCO" ?
inactive

So what does the record say about outcome for "Cc1nc2ccc3ccc(CNc4ccc5c(c4)CN([C@@H](CCC(=O)O)C(=O)O)C5=O)cc3c2c(=O)[nH]1" ?
inactive

For "COc1cc(C=NNc2nc(Nc3ccccc3)nc(Nc3ccccc3)n2)ccc1OCc1ccccc1[N+](=O)[O-]" , what is its reported outcome?
inactive

Could you share which outcome value was measured for "O=S(=O)(Nc1cc2c(cc1O)CCNCC2)c1ccc(-c2ccc(Cl)cc2)cc1" ?
inactive

Reported outcome, compound "CN1CCN(Cc2cccc(-c3ccc4c(Nc5ccc(F)cc5Cl)ccnc4c3)c2)CC1" : ____
inactive

Please give the measured outcome for this compound: "CCOC(=O)c1ccc(NC(=O)NNC(=O)c2ccc(CCN3CCC(c4nc(COCC(F)(F)F)c(-c5ccc(F)cc5)o4)CC3)cc2)cc1"
inactive

Quick one: outcome for "Cc1cc(NC(=O)Nc2ccc3sccc3c2)c2ccccc2n1" ?
inactive
